# assay system: T. brucei MetRS (Trypanosoma brucei brucei)
# Sequence (Q38C91 1-773): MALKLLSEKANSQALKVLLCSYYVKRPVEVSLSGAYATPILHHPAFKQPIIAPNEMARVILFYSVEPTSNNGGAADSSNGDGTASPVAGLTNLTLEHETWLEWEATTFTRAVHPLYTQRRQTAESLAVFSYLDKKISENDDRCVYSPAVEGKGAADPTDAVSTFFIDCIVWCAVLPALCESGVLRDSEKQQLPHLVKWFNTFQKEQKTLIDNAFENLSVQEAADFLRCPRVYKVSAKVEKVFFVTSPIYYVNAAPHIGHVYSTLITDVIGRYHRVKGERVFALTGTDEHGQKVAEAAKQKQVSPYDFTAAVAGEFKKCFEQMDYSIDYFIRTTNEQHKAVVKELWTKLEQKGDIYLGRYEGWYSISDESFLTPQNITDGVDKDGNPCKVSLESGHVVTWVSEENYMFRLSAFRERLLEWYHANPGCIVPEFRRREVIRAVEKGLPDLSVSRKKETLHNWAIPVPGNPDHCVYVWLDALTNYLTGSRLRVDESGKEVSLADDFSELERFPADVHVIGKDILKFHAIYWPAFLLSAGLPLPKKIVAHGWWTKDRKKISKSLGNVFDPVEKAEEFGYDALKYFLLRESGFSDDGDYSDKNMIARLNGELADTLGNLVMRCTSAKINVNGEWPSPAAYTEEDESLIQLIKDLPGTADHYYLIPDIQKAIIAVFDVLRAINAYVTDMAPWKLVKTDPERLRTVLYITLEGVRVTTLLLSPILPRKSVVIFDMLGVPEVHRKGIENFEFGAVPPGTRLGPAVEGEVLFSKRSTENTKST
# test protocol: Orthogonal fluorescence polarization AMP production assay
# Type: biochemical
reported endpoint: IC50 (nM)
One number for each entry, in nM.

(Q) Using the record for Oc1cc(NCCCNCc2cc(Cl)cc(Cl)c2)nc2ccccc12 [CID 18353708, reference compound] , report its IC50.
(A) 30.3

All values here come from paper PMC4378865.
